assay: yeast display, Sf9 membrane polyspecificity reagent, FACS + sequencing; frameworks hold sequencing errors
MEASUREMENT KIND: polyreactivity (PSR sort gate)

Reference set (4 entries):
{"POLYMER SEQUENCE": "QVQLVESGGGLVQAGGSLRLSCAASGFIYRVYAIGWYRQAPGKERELVAAITGNGVSTYYADSVKVRFTISRDNAKNTVYLQMNSLKPEDTAVYYCATYGRRWYSSRRLDYWGQGTQVTVSS", "RESULT": "low polyreactivity"}
{"POLYMER SEQUENCE": "QVQLVESGGGLVQAGGSLRLSCAASGSIFYLYTMGWYRQAPGKERELVASITYSGGTYYADSVKGRFTISRDNAKNTVYLQMNSLKPEDTAVYYCNAHIPTNRSYVPEVRGEYDYWGQGTQVTVSS", "RESULT": "low polyreactivity"}
{"POLYMER SEQUENCE": "QVQLVESGGGLVQAGGSLRLSCAASGLTFQSNAMGWYRQAPGKEREFVAAITSGGNTYYADSVKGRFTISRDNAKNTVYLQMNSLKPEDTAVYYCNADYQDEEDDYWGQGTQVTVSS", "RESULT": "low polyreactivity"}
{"POLYMER SEQUENCE": "QVQLVESGGGLVQAGGSLRLSCAASGSIFTVNAMGWYIQAPGIERELVAAIDGSSGSTNYADSVKGRFTISRDIAKNTVYLQMNSLKPEDTAVYYCAADWSYEYGYWGQGTQVTVSS", "RESULT": "low polyreactivity"}

Shifting focus to the sequence that follows.
Tell me its polyreactivity (PSR sort gate) given QVQLVESGGGLVQAGGSLRLSCAASGRIFRTNAMGWYRQAPGKERELVAAISDSGADTSYADSVKGRFTISRDNAKNTVYLQMNSLKPEDTAVYYCNRGRVYYRYLKDYDYWGQGTQVTVSS as the entry.
low polyreactivity
